Target: T1R umami taste receptor (Homo sapiens, UniProt Q7RTX0+Q7RTX1)
Sequence (Q7RTX1 21-841): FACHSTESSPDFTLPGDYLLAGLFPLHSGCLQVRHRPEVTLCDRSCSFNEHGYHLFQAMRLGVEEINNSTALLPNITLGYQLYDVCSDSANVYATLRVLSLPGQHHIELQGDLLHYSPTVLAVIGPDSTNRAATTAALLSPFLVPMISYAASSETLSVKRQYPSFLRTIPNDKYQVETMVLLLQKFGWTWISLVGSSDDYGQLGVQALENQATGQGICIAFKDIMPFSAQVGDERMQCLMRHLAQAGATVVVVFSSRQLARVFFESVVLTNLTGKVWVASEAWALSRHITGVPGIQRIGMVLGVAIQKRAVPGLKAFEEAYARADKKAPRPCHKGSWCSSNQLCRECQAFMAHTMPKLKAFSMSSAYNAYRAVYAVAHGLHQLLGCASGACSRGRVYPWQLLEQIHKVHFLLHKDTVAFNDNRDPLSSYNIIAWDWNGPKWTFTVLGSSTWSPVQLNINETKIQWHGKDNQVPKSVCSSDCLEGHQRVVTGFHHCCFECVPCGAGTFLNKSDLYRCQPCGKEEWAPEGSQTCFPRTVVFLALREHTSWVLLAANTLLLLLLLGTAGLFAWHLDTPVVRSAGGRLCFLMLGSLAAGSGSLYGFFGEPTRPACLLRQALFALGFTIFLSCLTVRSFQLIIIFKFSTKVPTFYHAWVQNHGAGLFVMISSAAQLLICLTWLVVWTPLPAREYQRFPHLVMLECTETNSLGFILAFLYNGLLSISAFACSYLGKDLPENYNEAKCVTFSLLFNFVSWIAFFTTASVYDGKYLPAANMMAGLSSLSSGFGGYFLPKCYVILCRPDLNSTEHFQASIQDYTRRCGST
Sequence (Q7RTX0 21-852): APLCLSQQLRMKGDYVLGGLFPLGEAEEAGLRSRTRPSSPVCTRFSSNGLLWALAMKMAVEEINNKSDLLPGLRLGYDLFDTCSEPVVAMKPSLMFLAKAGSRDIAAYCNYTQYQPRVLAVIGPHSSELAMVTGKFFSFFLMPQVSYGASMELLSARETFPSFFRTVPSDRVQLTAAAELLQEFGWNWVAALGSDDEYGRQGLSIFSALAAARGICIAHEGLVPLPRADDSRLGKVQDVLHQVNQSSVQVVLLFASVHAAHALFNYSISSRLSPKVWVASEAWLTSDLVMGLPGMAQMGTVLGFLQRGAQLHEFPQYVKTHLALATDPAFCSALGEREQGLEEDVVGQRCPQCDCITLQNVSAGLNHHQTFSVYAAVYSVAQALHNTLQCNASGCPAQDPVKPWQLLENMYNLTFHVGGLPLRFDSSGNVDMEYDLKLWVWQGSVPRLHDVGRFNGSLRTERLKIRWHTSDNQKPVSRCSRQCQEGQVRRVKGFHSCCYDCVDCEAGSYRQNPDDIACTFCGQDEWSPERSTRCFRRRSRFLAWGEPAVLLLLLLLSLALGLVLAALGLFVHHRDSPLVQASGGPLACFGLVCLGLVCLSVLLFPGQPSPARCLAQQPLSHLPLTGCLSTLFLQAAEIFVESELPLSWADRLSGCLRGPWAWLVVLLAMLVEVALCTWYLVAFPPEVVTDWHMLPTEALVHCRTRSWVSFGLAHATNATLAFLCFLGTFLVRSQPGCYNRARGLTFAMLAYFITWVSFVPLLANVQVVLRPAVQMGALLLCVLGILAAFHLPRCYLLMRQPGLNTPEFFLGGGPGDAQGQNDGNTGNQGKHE
Test: in vitro cell-based assay having cells that express the T1R umami taste receptor (enhancement of MSG)
Conditions: compound at 0.3 μM
assay metric: MSG Enh. Ratio

{"record smiles": "COC(=O)[C@H](Cc1ccccc1)NC(=O)/C=C/c1ccc(OC)cc1", "assay metric": "MSG Enh. Ratio", "result": "6.4 @"}
{"record smiles": "CCOC(=O)[C@@H](NC(=O)/C=C/c1ccc(OCC)cc1)C(C)C", "assay metric": "MSG Enh. Ratio", "result": "7.4 @"}
{"record smiles": "CCOC(=O)[C@@H](NC(=O)/C=C/c1ccc(OC)cc1)C(C)C", "assay metric": "MSG Enh. Ratio", "result": "3.0 @"}
{"record smiles": "CCOc1ccc(/C=C/C(=O)N[C@@H](Cc2ccccc2)C(=O)OC)cc1", "assay metric": "MSG Enh. Ratio", "result": "8.1 @"}
